Sourced from patent US20210388260A1

- PROTOCOL: Absorption and emission spectra, molar extinction coefficient, fluorescence quantum yield
- Assay type: physicochemical
- EXPERIMENTAL CONTEXT: in toluene (10^−5 mol/L)
MEASURED PARAMETER: fluorescence quantum yield

{"COMPOUND": "CC(C)[Si](C#Cc1c2cccc3c4ccc5ccc6c(C#C[Si](C(C)C)(C(C)C)C(C)C)c7cccc8c9ccc%10ccc1c1c%10c9c9c(c78)c6c5c4c9c1c23)(C(C)C)C(C)C", "QUANTITATIVE RESULT": 0.67}
{"COMPOUND": "CCCCCCCCCCCCOc1cc(-c2c3cccc4c5ccc6ccc7c(-c8cc(OCCCCCCCCCCCC)c(OCCCCCCCCCCCC)c(OCCCCCCCCCCCC)c8)c8cccc9c%10ccc%11ccc2c2c%11c%10c%10c(c89)c7c6c5c%10c2c34)cc(OCCCCCCCCCCCC)c1OCCCCCCCCCCCC", "QUANTITATIVE RESULT": 0.89}
{"COMPOUND": "Cc1cccc(C)c1-c1c2cccc3c4ccc5ccc6c(-c7c(C)cccc7C)c7cccc8c9ccc%10ccc1c1c%10c9c9c(c78)c6c5c4c9c1c23", "QUANTITATIVE RESULT": 0.85}
{"COMPOUND": "CCCCCCCCCCCCc1c2cccc3c4ccc5ccc6c(CCCCCCCCCCCC)c7cccc8c9ccc%10ccc1c1c%10c9c9c(c78)c6c5c4c9c1c23 [Example 1, 6,14-didodecyldibenzo[hi,st]ovalene]", "QUANTITATIVE RESULT": 0.85}

###

- PROTOCOL: Absorption and emission spectra, molar extinction coefficient, fluorescence quantum yield
- Type: physicochemical
- EXPERIMENTAL CONTEXT: in toluene (10^−5 mol/L), at maximum absorption wavelength

{"COMPOUND": "Cc1cccc(C)c1-c1c2cccc3c4ccc5ccc6c(-c7c(C)cccc7C)c7cccc8c9ccc%10ccc1c1c%10c9c9c(c78)c6c5c4c9c1c23 [Example 2]", "molar extinction coefficient ε / M⁻¹ cm⁻¹": 283000}
{"COMPOUND": "CCCCCCCCCCCCc1c2cccc3c4ccc5ccc6c(CCCCCCCCCCCC)c7cccc8c9ccc%10ccc1c1c%10c9c9c(c78)c6c5c4c9c1c23 [Example 1, 6,14-didodecyldibenzo[hi,st]ovalene]", "molar extinction coefficient ε / M⁻¹ cm⁻¹": 203000}
{"COMPOUND": "CCCCCCCCCCCCOc1cc(-c2c3cccc4c5ccc6ccc7c(-c8cc(OCCCCCCCCCCCC)c(OCCCCCCCCCCCC)c(OCCCCCCCCCCCC)c8)c8cccc9c%10ccc%11ccc2c2c%11c%10c%10c(c89)c7c6c5c%10c2c34)cc(OCCCCCCCCCCCC)c1OCCCCCCCCCCCC [Example 6]", "molar extinction coefficient ε / M⁻¹ cm⁻¹": 385000}
{"COMPOUND": "CC(C)[Si](C#Cc1c2cccc3c4ccc5ccc6c(C#C[Si](C(C)C)(C(C)C)C(C)C)c7cccc8c9ccc%10ccc1c1c%10c9c9c(c78)c6c5c4c9c1c23)(C(C)C)C(C)C [Example 5]", "molar extinction coefficient ε / M⁻¹ cm⁻¹": 61511}

###

List of maximum absorption wavelength values.
- PROTOCOL: Absorption and emission spectra, molar extinction coefficient, fluorescence quantum yield
- Assay type: physicochemical
- EXPERIMENTAL CONTEXT: in toluene (10^−5 mol/L)

{"COMPOUND": "CCCCCCCCCCCCOc1cc(-c2c3cccc4c5ccc6ccc7c(-c8cc(OCCCCCCCCCCCC)c(OCCCCCCCCCCCC)c(OCCCCCCCCCCCC)c8)c8cccc9c%10ccc%11ccc2c2c%11c%10c%10c(c89)c7c6c5c%10c2c34)cc(OCCCCCCCCCCCC)c1OCCCCCCCCCCCC [Example 6]", "UNIT ANNOTATION": "nm", "maximum absorption wavelength": 609}
{"COMPOUND": "Cc1cccc(C)c1-c1c2cccc3c4ccc5ccc6c(-c7c(C)cccc7C)c7cccc8c9ccc%10ccc1c1c%10c9c9c(c78)c6c5c4c9c1c23 [Example 2]", "UNIT ANNOTATION": "nm", "maximum absorption wavelength": 609}
{"COMPOUND": "CC(C)[Si](C#Cc1c2cccc3c4ccc5ccc6c(C#C[Si](C(C)C)(C(C)C)C(C)C)c7cccc8c9ccc%10ccc1c1c%10c9c9c(c78)c6c5c4c9c1c23)(C(C)C)C(C)C [Example 5]", "UNIT ANNOTATION": "nm", "maximum absorption wavelength": 647}
{"COMPOUND": "CCCCCCCCCCCCc1c2cccc3c4ccc5ccc6c(CCCCCCCCCCCC)c7cccc8c9ccc%10ccc1c1c%10c9c9c(c78)c6c5c4c9c1c23 [Example 1, 6,14-didodecyldibenzo[hi,st]ovalene]", "UNIT ANNOTATION": "nm", "maximum absorption wavelength": 611}
